// minimum viability across doses lookup, one value per entry
System: SN12C
Experiment: minimum viability across doses, drug + dasatinib, relative to DMSO (fraction); higher = less growth inhibition
Settings: treatment: drug + dasatinib (fixed dose, not stated); 5 days

Solved entries (count: 4):
[[record]]
compound = "O=C(NOC[C@H](O)CO)c1ccc(F)c(F)c1Nc1ccc(I)cc1F + Cc1nc(Nc2ncc(C(=O)Nc3c(C)cccc3Cl)s2)cc(N2CCN(CCO)CC2)n1 [dasatinib]"
result = 0.308

[[record]]
compound = "CC(C)CC(=O)Nc1n[nH]c2c1CN(C(=O)C1CCN(C)CC1)C2(C)C + Cc1nc(Nc2ncc(C(=O)Nc3c(C)cccc3Cl)s2)cc(N2CCN(CCO)CC2)n1 [dasatinib]"
result = 0.00656

[[record]]
compound = "COc1cc2ncnc(Nc3ccc(F)c(Cl)c3)c2cc1NC(=O)/C=C/CN1CCCCC1 + Cc1nc(Nc2ncc(C(=O)Nc3c(C)cccc3Cl)s2)cc(N2CCN(CCO)CC2)n1 [dasatinib]"
result = 0.00664

[[record]]
compound = "CS(=O)(=O)O.O=C(Nc1cccc(Cl)c1)Nc1ncc(CCNc2ncnc3ccsc23)s1 [SNS-314] + Cc1nc(Nc2ncc(C(=O)Nc3c(C)cccc3Cl)s2)cc(N2CCN(CCO)CC2)n1 [dasatinib]"
result = 0.259


Q: Fill in: minimum viability across doses of COc1ccc2cc(-c3[nH]c(-c4ccc(S(C)=O)cc4)nc3-c3ccncc3)ccc2c1 (stereo not given) [Tie2 kinase inhibitor] + Cc1nc(Nc2ncc(C(=O)Nc3c(C)cccc3Cl)s2)cc(N2CCN(CCO)CC2)n1 [dasatinib] is ___
Result: 0.64
